System: U-251
Assay: NCI tumour cell line growth inhibition, 48 h
Active and inactive are the calls of the source. No stated cut-off is given here; in the data, active = GI50 up to about 1.1 µM and inactive = higher.
Possible outcomes: active, inactive

C#C[C@H](CCCC)OC(=O)N[C@H](C)c1ccccc1 : inactive
COc1ccc2c(=O)cc(-c3ccncc3)oc2c1OC : inactive
COc1ccc(C(c2ccc(C(C)C)cc(=O)c2O)c2c(O)cc3oc(-c4ccccc4)cc(=O)c3c2O)cc1 (stereo not given) : inactive
CCOC(=O)c1nc2ccc(Cl)cc2c2c1CCO2 : inactive
O=C(CN1CCN(c2ccccc2)CC1)c1ccc2[nH]c(=O)oc2c1 : inactive
Oc1ccc(-c2nc3ccc4ccccc4c3c3c2CCCC3)c(O)c1 : inactive
C=C(C)OCOCCOC : inactive
C=C(C)COc1ccc2c(c1)CCC1C2CCC2(C)C(=O)/C(=N/O)CC12 (stereo not given) : inactive
CC1=C(C(=O)Nc2ccccc2C)C(c2ccc(Cl)c(Cl)c2)C(C(=O)Nc2ccccc2C)=C(C)N1 : inactive
CC/C=C/C[C@H](O[Si](C)(C)C(C)(C)C)[C@H]1C[C@H]2O[C@H]([C@@H](O)C#C[Si](C)(C)C)C[C@H]2O1 : inactive
Cc1nc2ccccc2c(-n2cccn2)c1CCn1cccn1 : inactive
CN(C)CCCN1C(=O)N(CCCN(C)C)c2c3cc(O)ccc3nc3c([N+](=O)[O-])ccc1c23 : inactive
COc1ccc(C2C=C(c3ccccc3)Nc3nnnn32)cc1 (stereo not given) : inactive
COc1ccc(-c2oc3cc(-c4cc5oc(-c6ccc(OC)cc6)c(-c6ccc(OC)cc6)c5cc4OC)c(OC)cc3c2-c2ccc(OC)cc2)cc1 : inactive
O=C(c1c(F)c(F)c(F)c(F)c1F)n1c(=S)n(C(=O)c2c(F)c(F)c(F)c(F)c2F)c2ccccc21 : inactive
CC(=O)OC(C)C(=O)C1c2cccc(O)c2C(=O)c2c(O)cc(C)cc21 (stereo not given) : active
CN=C(n1ccnc1)n1ccnc1 : inactive
COc1cc(/C=C2/C(=O)NC(Cc3cc(OC)c(OC)c(C)c3OC)C(=O)N2Cc2ccccc2)c(OC)c(C)c1OC (stereo not given) : inactive
O=C1NC(=O)C(CC2CCCCCCCCCCC2=O)C(=O)N1 (stereo not given) : inactive
N#Cc1ccc(/C=N/C23CC4CC(CC(C4)C2)C3)cc1 : inactive
